Tested on: IGROV-1
Test: NCI tumour cell line growth inhibition, 48 h
Active and inactive are the calls of the source. No stated cut-off is given here; in the data, active = GI50 up to about 1.1 µM and inactive = higher.
parameter measured: GI50

{"compound": "CC(C)(C)OC(=O)N1CCC23CCCC2C(=O)CC=C13 (stereo not given)", "tested system": "IGROV-1", "GI50": "> 100 µM (inactive)"}
{"compound": "COc1cccc2c1C(=O)c1c(O)c3c(c(O)c1C2=O)C[C@@](O)(C(C)=O)CC3S(=O)(=O)O (stereo not given in full)", "tested system": "IGROV-1", "GI50": "> 100 µM (inactive)"}

What does the data say about its GI50? Entry: COC(=O)C1(C)OC(C)=NC1(C(=O)OC)C(=O)OC (stereo not given)
> 100 µM (inactive)

What does the data say about its GI50? Entry: `COc1ccccc1/C=C1/Sc2scc(CC(=O)Nc3ccccc3)[n+]2C1=O`
38 µM (inactive)

What does the data say about its GI50? Entry: `c1ccc([P+](c2ccccc2)(c2ccccc2)C2Sc3ccccc3S2)cc1`
> 100 µM (inactive)
